Where these numbers come from: ChEMBL document CHEMBL5291721

System: Mu-type opioid receptor (Homo sapiens, UniProt P35372); also: assay procedure not described here
Sequence (P35372 whole entry): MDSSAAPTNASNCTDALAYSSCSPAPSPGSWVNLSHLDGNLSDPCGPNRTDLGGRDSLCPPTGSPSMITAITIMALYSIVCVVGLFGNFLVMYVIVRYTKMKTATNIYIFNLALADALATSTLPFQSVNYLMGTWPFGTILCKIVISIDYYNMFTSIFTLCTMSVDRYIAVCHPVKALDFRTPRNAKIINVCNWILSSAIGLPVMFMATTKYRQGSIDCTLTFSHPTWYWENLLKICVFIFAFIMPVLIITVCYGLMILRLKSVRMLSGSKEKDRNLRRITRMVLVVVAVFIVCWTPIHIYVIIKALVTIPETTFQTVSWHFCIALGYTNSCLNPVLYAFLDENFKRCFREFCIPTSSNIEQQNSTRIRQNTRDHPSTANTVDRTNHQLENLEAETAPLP
Test summary: biochemical
Type: functional
Give measured AC50 for each item. Keep answers brief.

# input molecule: Cc1nc([N+](=O)[O-])cn1-c1ccc([N+](=O)[O-])cc1 [NITREFAZOLE] ; wanted: its AC50
> 30 µM

# input molecule: O=C(NCCN1CCOCC1)c1ccc(Cl)cc1 [MOCLOBEMIDE] ; wanted: its AC50
> 30 µM

# input molecule: COc1cc2c(N)nc(N3CCN(C(=O)OCC(C)(C)O)CC3)nc2c(OC)c1OC [TRIMAZOSIN] ; wanted: its AC50
> 30 µM

# input molecule: Nc1nc(NC2CC2)c2ncn([C@H]3C=C[C@@H](CO)C3)c2n1 [ABACAVIR] ; wanted: its AC50
> 30 µM

# input molecule: C[C@@H]1O[C@@H](O[C@@H]2C=C3CC[C@@H]4[C@H](CC[C@]5(C)[C@@H](c6ccc(=O)oc6)CC[C@]45O)[C@@]3(C)CC2)[C@H](O)[C@H](O)[C@H]1O [PROSCILLARIDIN] ; wanted: its AC50
> 30 µM

# input molecule: CC(Oc1c(Cl)cccc1Cl)C1=NCCN1 (centres undefined) [LOFEXIDINE] ; wanted: its AC50
> 30 µM

# input molecule: CC(=O)O[C@H]1CC[C@@]2(C)C(=CC[C@@H]3[C@@H]2CC[C@]2(C)C(c4cccnc4)=CC[C@@H]32)C1 [ABIRATERONE ACETATE] ; wanted: its AC50
> 30 µM

# input molecule: CO/N=C(\C(=O)N[C@@H]1C(=O)N2C(C(=O)O)=C(CSc3nnnn3C)CS[C@H]12)c1csc(N)n1 [CEFMENOXIME] ; wanted: its AC50
> 30 µM

# input molecule: O=C(NCCNCC(O)COc1ccc(O)cc1)N1CCOCC1 (centres undefined) [XAMOTEROL] ; wanted: its AC50
> 30 µM

* * *

Record set of AC50 for target or system Type-1 angiotensin II receptor (Homo sapiens). Also: assay procedure not described here.

# input compound: Cc1cn([C@H]2C=C[C@@H](CO)O2)c(=O)[nH]c1=O ; wanted: its AC50
> 30 µM

# input compound: Cc1cc(O)c(C(=O)N[C@@H](C(=O)N[C@@H]2C(=O)N3C(C(=O)O)=C(CSc4nnnn4C)CS[C@H]23)c2ccc(O)cc2)cn1 [CEFPIRAMIDE] ; wanted: its AC50
> 30 µM

# input compound: Cc1ccc(-n2nccn2)c(C(=O)N2CCN(c3nc4cc(Cl)ccc4o3)CC[C@H]2C)c1 ; wanted: its AC50
> 30 µM

# input compound: O=C(NCCN1CCOCC1)c1ccc(Cl)cc1 [MOCLOBEMIDE] ; wanted: its AC50
> 10 µM

# input compound: COc1ccccc1N1CCN(CCCNc2cc(=O)n(C)c(=O)n2C)CC1 ; wanted: its AC50
> 30 µM

# input compound: CCN1CCN(C(=O)N[C@@H](C(=O)N[C@@H]2C(=O)N3C(C(=O)O)=C(CSc4nnnn4C)CS[C@H]23)c2ccc(O)cc2)C(=O)C1=O ; wanted: its AC50
> 30 µM

# input compound: COc1cc2nc(N(C)CCCNC(=O)C3CCCO3)nc(N)c2cc1OC (centres undefined) ; wanted: its AC50
> 30 µM

# input compound: CC=CC(=O)N(CC)c1ccccc1C ; wanted: its AC50
> 10 µM

# input compound: NCC(CC(=O)O)c1ccc(Cl)cc1 (centres undefined) ; wanted: its AC50
> 30 µM

# input compound: COc1ccccc1OCC(O)CN1CCN(CC(=O)Nc2c(C)cccc2C)CC1 (centres undefined) ; wanted: its AC50
> 30 µM

# input compound: Cc1c(C(=O)NN2CCCCC2)nn(-c2ccc(Cl)cc2Cl)c1-c1ccc(Cl)cc1 ; wanted: its AC50
16.9 µM

# input compound: CNS(=O)(=O)Cc1ccc2[nH]cc(CCN(C)C)c2c1 ; wanted: its AC50
> 30 µM

# input compound: C[C@]12CC[C@H]3[C@@H](CCC4=CC(=O)CC[C@@]43C)[C@@H]1CC[C@@H]2O ; wanted: its AC50
> 10 µM

# input compound: COCCCN1CCC(NC(=O)c2cc(Cl)c(N)c3c2OCC3)CC1 [PRUCALOPRIDE] ; wanted: its AC50
> 30 µM

# input compound: CCCC(C)C1(CC)C(=O)NC(=O)NC1=O (centres undefined) ; wanted: its AC50
> 10 µM

# input compound: COc1cc(NC(C)CCCN)c2ncccc2c1 (centres undefined) ; wanted: its AC50
> 30 µM

# input compound: CCCC1O[C@@H]2C[C@H]3[C@@H]4CCC5=CC(=O)C=C[C@]5(C)[C@H]4[C@@H](O)C[C@]3(C)[C@]2(C(=O)CO)O1 (some centres undefined) [BUDESONIDE] ; wanted: its AC50
> 10 µM

# input compound: CCCSc1ccc2nc(NC(=O)OC)[nH]c2c1 ; wanted: its AC50
> 10 µM

# input compound: CO[C@H]1C[C@@H]2CC[C@@H](C)[C@@](O)(O2)C(=O)C(=O)N2CCCC[C@H]2C(=O)O[C@H]([C@H](C)C[C@@H]2CC[C@@H](O)[C@H](OC)C2)CC(=O)[C@H](C)/C=C(\C)[C@@H](O)[C@@H](OC)C(=O)[C@H](C)C[C@H](C)/C=C/C=C/C=C/1C ; wanted: its AC50
> 30 µM

* * *

System: B2 bradykinin receptor (Homo sapiens, UniProt P30411); also: assay procedure not described here
Sequence (P30411 whole entry): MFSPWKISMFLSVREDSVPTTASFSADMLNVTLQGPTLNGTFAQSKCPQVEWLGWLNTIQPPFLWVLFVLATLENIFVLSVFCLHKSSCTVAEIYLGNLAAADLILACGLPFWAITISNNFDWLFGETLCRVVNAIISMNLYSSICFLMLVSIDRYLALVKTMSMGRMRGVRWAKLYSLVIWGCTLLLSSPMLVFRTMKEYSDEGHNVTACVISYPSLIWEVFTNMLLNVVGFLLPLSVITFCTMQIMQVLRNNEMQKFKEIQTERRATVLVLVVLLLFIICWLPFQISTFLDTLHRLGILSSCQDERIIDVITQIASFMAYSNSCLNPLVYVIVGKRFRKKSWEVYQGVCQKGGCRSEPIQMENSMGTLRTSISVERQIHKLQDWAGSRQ
Give measured AC50 for each item. Keep answers brief.

# input compound: Nc1ccn([C@H]2CC[C@@H](CO)O2)c(=O)n1 ; wanted: its AC50
> 10 µM

# input compound: Cc1c(OCC(F)(F)F)ccnc1C[S+]([O-])c1nc2ccccc2[nH]1 (centres undefined) ; wanted: its AC50
> 30 µM

# input compound: Cc1nc([N+](=O)[O-])cn1-c1ccc([N+](=O)[O-])cc1 ; wanted: its AC50
> 30 µM

# input compound: COc1ccc2c3c1O[C@H]1[C@@H](O)C=C[C@H]4[C@@H](C2)N(C)CC[C@@]341 ; wanted: its AC50
> 30 µM

# input compound: CCOC(=O)[C@H](CCc1ccccc1)N[C@@H](C)C(=O)N1C(=O)N(C)C[C@H]1C(=O)O ; wanted: its AC50
> 30 µM

# input compound: CC(=O)NCCCS(=O)(=O)O [ACAMPROSATE] ; wanted: its AC50
> 30 µM

# input compound: CN(C)CCC(c1ccc(Cl)cc1)c1ccccn1 (centres undefined) ; wanted: its AC50
> 30 µM

# input compound: CC(=O)O[C@H]1C[C@@H]2CC[C@@H]3[C@H](CC[C@@]4(C)[C@H]3C[C@H]([N+]3(C)CCCCC3)[C@@H]4OC(C)=O)[C@@]2(C)C[C@@H]1N1CCCCC1 ; wanted: its AC50
> 30 µM

# input compound: CC=CC(=O)N(CC)c1ccccc1C ; wanted: its AC50
> 10 µM

* * *

System: Prostaglandin G/H synthase 1 (Homo sapiens); also: assay procedure not described here
Sequence (P23219 whole entry): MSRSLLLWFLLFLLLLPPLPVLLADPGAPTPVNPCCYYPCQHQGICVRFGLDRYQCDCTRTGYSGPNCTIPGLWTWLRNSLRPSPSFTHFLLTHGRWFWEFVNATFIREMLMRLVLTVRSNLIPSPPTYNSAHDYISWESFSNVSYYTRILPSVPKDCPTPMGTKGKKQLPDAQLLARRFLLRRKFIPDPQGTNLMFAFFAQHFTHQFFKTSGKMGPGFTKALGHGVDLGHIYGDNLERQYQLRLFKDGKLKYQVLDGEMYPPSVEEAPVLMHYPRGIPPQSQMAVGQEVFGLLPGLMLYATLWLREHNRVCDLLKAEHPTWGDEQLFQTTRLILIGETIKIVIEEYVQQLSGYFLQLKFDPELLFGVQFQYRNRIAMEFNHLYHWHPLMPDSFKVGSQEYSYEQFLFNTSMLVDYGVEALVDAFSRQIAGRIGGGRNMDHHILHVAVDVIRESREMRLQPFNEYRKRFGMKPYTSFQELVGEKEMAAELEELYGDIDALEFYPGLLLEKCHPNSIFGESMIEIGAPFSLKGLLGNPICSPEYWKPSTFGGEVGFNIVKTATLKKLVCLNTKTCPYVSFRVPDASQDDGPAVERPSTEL
Format: functional
Value type: AC50

Form entry - test system: Prostaglandin G/H synthase 1 (Homo sapiens); read-out: AC50; molecule: CC[C@H]1CN2CCc3cc(OC)c(OC)cc3[C@@H]2C[C@@H]1C[C@H]1NCCc2cc(OC)c(OC)cc21; also: assay procedure not described here
> 30 µM

Form entry - test system: Prostaglandin G/H synthase 1 (Homo sapiens); read-out: AC50; molecule: CC(=O)[C@@]1(O)CC[C@H]2[C@@H]3C=C(C)C4=CC(=O)CC[C@]4(C)[C@H]3CC[C@@]21C; also: assay procedure not described here
> 30 µM

Form entry - test system: Prostaglandin G/H synthase 1 (Homo sapiens); read-out: AC50; molecule: CC(=O)N[C@@H]1[C@@H](O)[C@H](O)[C@@H](CO)O[C@H]1O; also: assay procedure not described here
> 30 µM

Form entry - test system: Prostaglandin G/H synthase 1 (Homo sapiens); read-out: AC50; molecule: N[C@@H](C(=O)N[C@@H]1C(=O)N2C(C(=O)O)=C(Cl)CC[C@H]12)c1ccccc1 [LORACARBEF ANHYDROUS]; also: assay procedure not described here
> 30 µM

Form entry - test system: Prostaglandin G/H synthase 1 (Homo sapiens); read-out: AC50; molecule: CN1CCN(C2=Nc3ccccc3Sc3ccc(Cl)cc32)CC1; also: assay procedure not described here
> 30 µM

Form entry - test system: Prostaglandin G/H synthase 1 (Homo sapiens); read-out: AC50; molecule: CO[C@H]1C[C@@H]2CC[C@@H](C)[C@@](O)(O2)C(=O)C(=O)N2CCCC[C@H]2C(=O)O[C@H]([C@H](C)C[C@@H]2CC[C@@H](O)[C@H](OC)C2)CC(=O)[C@H](C)/C=C(\C)[C@@H](O)[C@@H](OC)C(=O)[C@H](C)C[C@H](C)/C=C/C=C/C=C/1C; also: assay procedure not described here
26.6 µM

Form entry - test system: Prostaglandin G/H synthase 1 (Homo sapiens); read-out: AC50; molecule: CCCCS(=O)(=O)N[C@@H](Cc1ccc(OCCCCC2CCNCC2)cc1)C(=O)O; also: assay procedure not described here
> 30 µM
